target: hSSB1 (Homo sapiens, UniProt Q9BQ15 Q9BQ15:1-211); assay: SPR; LSA_In3E3 = 1
Sequence (Q9BQ15 whole entry, one chain of several): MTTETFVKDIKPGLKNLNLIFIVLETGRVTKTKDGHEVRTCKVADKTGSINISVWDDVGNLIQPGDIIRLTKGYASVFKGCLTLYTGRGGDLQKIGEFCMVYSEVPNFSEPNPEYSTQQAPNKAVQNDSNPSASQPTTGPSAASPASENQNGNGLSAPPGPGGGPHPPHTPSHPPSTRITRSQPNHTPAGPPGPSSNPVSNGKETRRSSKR
quantity.name: binding signal (normalized Rmax)

* CCAGUGAGCCGG (ssRNA, 2'-OMe all, PS all) [In3E3 3' truncation 12 nt] | 0.24
* UGAGCCGGACUU (ssRNA, 2'-OMe all, PS all) [In3E3 both-end truncation 12 nt] | 0.2
* CUCAUUCCUACCGACACCCC (ssRNA, 2'-OMe all, phosphodiester, ZEN at both ends) [Neg_C ZEN (DKLS789189)] | 0.09
* CCAGUGAGCCGGACUU (ssRNA, 2'-OMe all, PS all) [In3E3 3' truncation 16 nt] | 0.4
